Item-by-item account of IC50
# ASSAYED TARGET: Serine/threonine-protein kinase mTOR (Homo sapiens)
# PROTOCOL TEXT: Inhibition of mTOR (unknown origin)
Units required after the number.

CC(C)(O)c1ccc(-c2cnc3[nH]c(=O)n(CC4CCOCC4)c3n2)cn1 = 2550 nM

Shifting focus to the compound that follows.
query: Looking for the measured IC50 of O=c1[nH]c2ncc(-c3ccc(-c4nc[nH]n4)cc3)nc2n1CCC1CCOCC1 , can you help?
result: 18 nM

* * *

List of pKi tested on Peptidyl-prolyl cis-trans isomerase FKBP1A (Homo sapiens, UniProt P62942).
Sequence (P62942 whole entry): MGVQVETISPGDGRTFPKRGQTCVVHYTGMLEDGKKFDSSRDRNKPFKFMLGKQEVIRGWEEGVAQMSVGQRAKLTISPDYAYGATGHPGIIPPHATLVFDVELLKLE
# pKi: negative log10 of molar concentration; output just the value

Study these solved cases before continuing.
CO[C@@H]1C[C@@H]2CC[C@@H](C)[C@@](O)(O2)C(=O)C(=O)N2CCCC[C@H]2C(=O)OC([C@H](C)C[C@H]2CC[C@H](O)CC2)C/C=C(\C)[C@@H](O)CC(=O)[C@H](C)C[C@H](C)/C=C/C=C/C=C/1C (some centres undefined) = 8.10
C\C1=C/C=C/C=C/[C@@H](C)C[C@@H](C)C(=O)C[C@H](O)/C(C)=C/CC([C@H](C)C[C@H]2CC[C@H](O)CC2)OC(=O)[C@@H]2CCCCN2C(=O)C(=O)[C@]2(O)O[C@@H](CC[C@H]2C)C[C@H]1O (some centres undefined) = 8.11
CO[C@@H]1C[C@@H]2CC[C@@H](C)[C@@](O)(O2)C(=O)C(=O)N2CCCC[C@H]2C(=O)OC([C@H](C)C[C@@H]2CC[C@@H](O)[C@H](OC)C2)C/C=C(\C)[C@@H](O)CC(=O)[C@H](C)C[C@H](C)/C=C/C=C/C=C/1C (some centres undefined) = 8.23

Shifting focus to the compound that follows.
query: Provide the documented pKi with Peptidyl-prolyl cis-trans isomerase FKBP1A (Homo sapiens, UniProt P62942) as the system for CO[C@@H]1C[C@@H]2CC[C@@H](C)[C@@](O)(O2)C(=O)C(=O)N2CCCC[C@H]2C(=O)OC([C@H](C)C[C@@H]2CC[C@@H](O)[C@H](OC)C2)CC(O)CC(=O)[C@H](C)/C=C(\C)[C@@H](O)CC(=O)[C@H](C)C[C@H](C)/C=C/C=C/C=C/1C (some centres undefined)
result: 8.19

* * *

# ASSAYED TARGET: Phosphatidylinositol 4,5-bisphosphate 3-kinase catalytic subunit alpha isoform (Homo sapiens, UniProt P42336)
# Sequence (P42336 whole entry, canonical isoform): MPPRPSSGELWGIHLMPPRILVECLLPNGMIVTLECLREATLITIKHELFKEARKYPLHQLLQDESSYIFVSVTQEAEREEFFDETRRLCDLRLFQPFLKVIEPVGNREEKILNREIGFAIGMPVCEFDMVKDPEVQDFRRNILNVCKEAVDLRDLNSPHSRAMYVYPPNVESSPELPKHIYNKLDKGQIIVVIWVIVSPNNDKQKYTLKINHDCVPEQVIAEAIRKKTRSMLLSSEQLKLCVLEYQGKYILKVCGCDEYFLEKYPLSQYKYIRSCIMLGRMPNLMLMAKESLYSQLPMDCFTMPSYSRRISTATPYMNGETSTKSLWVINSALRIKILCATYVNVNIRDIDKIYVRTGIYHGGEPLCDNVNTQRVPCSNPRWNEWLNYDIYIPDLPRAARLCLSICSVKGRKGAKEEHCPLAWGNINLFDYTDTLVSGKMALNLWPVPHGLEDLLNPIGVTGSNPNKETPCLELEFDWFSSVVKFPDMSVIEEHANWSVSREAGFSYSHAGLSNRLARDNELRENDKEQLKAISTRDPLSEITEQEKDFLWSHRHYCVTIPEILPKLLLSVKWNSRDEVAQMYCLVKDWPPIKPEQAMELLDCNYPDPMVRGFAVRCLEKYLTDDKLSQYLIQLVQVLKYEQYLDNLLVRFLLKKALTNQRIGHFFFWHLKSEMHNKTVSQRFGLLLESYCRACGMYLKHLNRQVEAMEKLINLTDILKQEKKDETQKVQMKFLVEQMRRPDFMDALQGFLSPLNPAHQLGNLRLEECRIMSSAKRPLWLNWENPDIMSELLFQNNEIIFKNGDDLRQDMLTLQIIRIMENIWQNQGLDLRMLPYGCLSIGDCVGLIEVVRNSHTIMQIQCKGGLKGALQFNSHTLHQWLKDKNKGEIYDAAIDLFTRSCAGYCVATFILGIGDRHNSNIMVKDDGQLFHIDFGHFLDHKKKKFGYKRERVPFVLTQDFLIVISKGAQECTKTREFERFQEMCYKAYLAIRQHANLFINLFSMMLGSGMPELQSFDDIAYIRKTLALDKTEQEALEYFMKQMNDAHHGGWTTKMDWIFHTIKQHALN
# PROTOCOL TEXT: Inhibition of human PI3Kalpha preincubated for 15 mins followed by ATP addition measured after 1 hr by TR-FRET assay
Item-by-item account of IC50
Use µM as the unit, but write only the number.

Study these solved cases before continuing.
CC(=O)N1CCC(n2nc(-c3cc4cc(O)cc(Cl)c4[nH]3)c3c(N)ncnc32)CC1 = 0.1
Nc1ncnc2c1c(-c1cc3cc(O)cc(Cl)c3[nH]1)nn2C1CCOCC1 = 0.1

query: Looking for the measured IC50 of COc1cccc2cc(-c3nn(C4CCOCC4)c4ncnc(N)c34)[nH]c12 , can you help?
result: 0.1

* * *

# ASSAYED TARGET: Phosphatidylinositol 4,5-bisphosphate 3-kinase catalytic subunit gamma isoform (Homo sapiens)
# Sequence (P48736 whole entry, canonical isoform): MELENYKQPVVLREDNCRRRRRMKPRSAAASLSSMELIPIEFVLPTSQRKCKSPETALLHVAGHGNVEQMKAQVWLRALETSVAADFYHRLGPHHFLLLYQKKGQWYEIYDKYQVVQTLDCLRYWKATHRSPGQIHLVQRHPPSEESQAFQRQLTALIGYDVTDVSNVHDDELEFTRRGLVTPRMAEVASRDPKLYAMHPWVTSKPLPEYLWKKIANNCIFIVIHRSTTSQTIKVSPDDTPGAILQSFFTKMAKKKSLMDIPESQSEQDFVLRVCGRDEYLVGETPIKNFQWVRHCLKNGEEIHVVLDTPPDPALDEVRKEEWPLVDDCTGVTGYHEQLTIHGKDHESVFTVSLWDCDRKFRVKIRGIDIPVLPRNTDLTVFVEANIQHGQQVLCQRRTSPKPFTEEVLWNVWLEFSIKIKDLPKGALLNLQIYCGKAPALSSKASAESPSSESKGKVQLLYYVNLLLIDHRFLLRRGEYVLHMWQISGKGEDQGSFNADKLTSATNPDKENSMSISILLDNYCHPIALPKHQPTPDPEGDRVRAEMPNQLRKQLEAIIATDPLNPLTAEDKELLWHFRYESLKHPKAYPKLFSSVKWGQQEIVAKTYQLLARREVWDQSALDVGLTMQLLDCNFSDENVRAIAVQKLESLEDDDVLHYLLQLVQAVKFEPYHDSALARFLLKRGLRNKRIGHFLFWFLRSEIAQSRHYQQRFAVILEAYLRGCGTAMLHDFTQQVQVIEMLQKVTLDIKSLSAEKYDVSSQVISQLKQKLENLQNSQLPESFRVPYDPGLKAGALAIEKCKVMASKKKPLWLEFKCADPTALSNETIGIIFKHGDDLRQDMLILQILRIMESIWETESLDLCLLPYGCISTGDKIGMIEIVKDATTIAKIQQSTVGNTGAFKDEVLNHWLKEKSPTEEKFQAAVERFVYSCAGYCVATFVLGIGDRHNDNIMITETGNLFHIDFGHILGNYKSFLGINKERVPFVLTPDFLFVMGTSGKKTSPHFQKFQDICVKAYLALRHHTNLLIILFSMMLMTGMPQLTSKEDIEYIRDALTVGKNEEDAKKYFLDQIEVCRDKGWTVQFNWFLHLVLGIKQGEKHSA
# PROTOCOL TEXT: Inhibition of PI3Kgamma (unknown origin) by TR-FRET assay
Item-by-item account of pIC50
# pIC50: negative log10 of molar concentration; output just the value

NOCCOCCOCCOCCC(=O)N1CCN(c2cnc3ccc(-c4cnc(Cl)c(NS(=O)(=O)c5ccc(F)cc5)c4)cc3n2)CC1 = 8.88

query: Looking for the measured pIC50 of O=S(=O)(Nc1cc(-c2ccc3ncc(N4CCNCC4)nc3c2)cnc1Cl)c1ccc(F)cc1 , can you help?
result: 8.29

* * *

# ASSAYED TARGET: mTORC2 (Homo sapiens, UniProt P42345+Q6R327+Q9BPZ7+Q9BVC4)
# Sequence (Q6R327 whole entry, other chains not shown): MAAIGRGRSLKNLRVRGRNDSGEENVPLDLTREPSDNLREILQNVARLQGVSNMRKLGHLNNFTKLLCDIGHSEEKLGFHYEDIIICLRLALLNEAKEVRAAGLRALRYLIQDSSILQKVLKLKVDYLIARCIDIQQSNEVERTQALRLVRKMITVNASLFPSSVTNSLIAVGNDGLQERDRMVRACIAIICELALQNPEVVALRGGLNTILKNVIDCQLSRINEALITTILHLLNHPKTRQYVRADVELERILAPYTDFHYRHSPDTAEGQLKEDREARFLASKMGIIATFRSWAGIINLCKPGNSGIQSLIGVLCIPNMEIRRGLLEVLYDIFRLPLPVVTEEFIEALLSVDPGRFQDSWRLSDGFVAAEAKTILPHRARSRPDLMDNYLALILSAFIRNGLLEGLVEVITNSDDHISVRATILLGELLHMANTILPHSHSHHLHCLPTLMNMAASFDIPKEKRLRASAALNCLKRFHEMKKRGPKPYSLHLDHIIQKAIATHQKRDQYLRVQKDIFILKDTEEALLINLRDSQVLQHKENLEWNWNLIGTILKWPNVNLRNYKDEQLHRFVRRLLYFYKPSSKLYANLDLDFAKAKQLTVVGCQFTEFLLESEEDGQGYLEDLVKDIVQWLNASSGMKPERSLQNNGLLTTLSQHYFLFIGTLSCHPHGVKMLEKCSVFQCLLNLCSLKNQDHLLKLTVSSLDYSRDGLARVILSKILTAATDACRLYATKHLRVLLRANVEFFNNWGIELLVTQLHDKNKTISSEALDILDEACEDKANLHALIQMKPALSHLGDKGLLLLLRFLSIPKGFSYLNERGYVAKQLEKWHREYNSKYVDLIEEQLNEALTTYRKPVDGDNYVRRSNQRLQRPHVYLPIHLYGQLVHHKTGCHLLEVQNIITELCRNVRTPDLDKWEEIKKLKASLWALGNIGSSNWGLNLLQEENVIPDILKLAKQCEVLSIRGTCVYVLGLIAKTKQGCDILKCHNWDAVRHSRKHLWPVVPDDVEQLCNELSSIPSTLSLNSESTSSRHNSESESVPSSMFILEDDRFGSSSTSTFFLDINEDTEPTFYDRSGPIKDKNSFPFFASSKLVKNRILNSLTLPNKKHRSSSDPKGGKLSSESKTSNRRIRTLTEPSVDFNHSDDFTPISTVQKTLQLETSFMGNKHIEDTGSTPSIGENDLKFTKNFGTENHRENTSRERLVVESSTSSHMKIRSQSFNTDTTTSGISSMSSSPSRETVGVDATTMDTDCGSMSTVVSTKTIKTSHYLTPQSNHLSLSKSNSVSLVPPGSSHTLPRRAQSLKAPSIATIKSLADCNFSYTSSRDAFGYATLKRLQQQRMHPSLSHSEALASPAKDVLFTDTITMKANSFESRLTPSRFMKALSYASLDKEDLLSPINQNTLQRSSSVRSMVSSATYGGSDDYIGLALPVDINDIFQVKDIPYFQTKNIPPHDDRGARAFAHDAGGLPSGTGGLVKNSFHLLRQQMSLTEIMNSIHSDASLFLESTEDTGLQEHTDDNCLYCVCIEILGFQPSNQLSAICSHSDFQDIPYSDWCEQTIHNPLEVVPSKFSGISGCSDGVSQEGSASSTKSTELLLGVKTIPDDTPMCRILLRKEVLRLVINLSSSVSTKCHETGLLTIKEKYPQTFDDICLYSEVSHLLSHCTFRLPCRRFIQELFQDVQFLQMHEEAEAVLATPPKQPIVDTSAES
# Sequence (Q9BPZ7 2-522 limits assumed, other chains not shown): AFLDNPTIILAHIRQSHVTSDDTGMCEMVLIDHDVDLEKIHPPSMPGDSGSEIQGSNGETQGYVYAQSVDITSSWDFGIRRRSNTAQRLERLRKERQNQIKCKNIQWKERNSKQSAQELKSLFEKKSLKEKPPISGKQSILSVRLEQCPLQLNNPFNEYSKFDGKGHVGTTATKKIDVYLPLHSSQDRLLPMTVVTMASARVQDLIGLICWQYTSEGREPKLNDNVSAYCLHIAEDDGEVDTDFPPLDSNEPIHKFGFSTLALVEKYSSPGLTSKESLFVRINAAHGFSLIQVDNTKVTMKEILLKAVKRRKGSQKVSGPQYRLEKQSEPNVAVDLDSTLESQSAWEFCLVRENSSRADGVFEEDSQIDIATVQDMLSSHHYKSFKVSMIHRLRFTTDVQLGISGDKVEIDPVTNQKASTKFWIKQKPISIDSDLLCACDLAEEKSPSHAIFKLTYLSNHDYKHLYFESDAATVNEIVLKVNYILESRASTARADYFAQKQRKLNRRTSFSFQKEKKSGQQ
# Sequence (Q9BVC4 whole entry, other chains not shown): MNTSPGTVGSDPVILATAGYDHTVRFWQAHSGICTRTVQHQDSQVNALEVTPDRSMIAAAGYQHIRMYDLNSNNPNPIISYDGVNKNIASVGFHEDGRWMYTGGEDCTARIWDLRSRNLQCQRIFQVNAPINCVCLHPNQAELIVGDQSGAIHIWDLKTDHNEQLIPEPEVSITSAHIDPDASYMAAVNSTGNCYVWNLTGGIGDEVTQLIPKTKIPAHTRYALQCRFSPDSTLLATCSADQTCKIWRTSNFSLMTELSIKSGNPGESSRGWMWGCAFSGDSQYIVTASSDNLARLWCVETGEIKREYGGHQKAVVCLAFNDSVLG
# PROTOCOL TEXT: Inhibition of mTORC2 in human PC-3 cells assessed as measuring phosphorylated Akt level incubated for 24 hrs by AlphaLISA assay
# Format: cell-based
pIC50: −log10 of the molar value.
MEASURE NAME: pIC50

Study these solved cases before continuing.
CO[C@@H]1C[C@H](C[C@@H](C)[C@@H]2CC(=O)[C@H](C)/C=C(\C)[C@@H](O)[C@@H](OC)C(=O)[C@H](C)C[C@H](C)/C=C/C=C/C=C(\C)C(OCCO)C[C@@H]3CC[C@@H](C)[C@@](O)(O3)C(=O)C(=O)N3CCCC[C@H]3C(=O)O2)CC[C@H]1OC(=O)NCCc1ccccc1 (stereo not given in full) = < 5.00
CO[C@@H]1C[C@H](C[C@@H](C)[C@@H]2CC(=O)[C@H](C)/C=C(\C)[C@@H](O)[C@@H](OC)C(=O)[C@H](C)C[C@H](C)/C=C/C=C/C=C(\C)C(OCCO)C[C@@H]3CC[C@@H](C)[C@@](O)(O3)C(=O)C(=O)N3CCCC[C@H]3C(=O)O2)CC[C@H]1OCCCN1CCOC[C@@H]1C (stereo not given in full) = < 5.00
CO[C@@H]1C[C@H](C[C@@H](C)[C@@H]2CC(=O)[C@H](C)/C=C(\C)[C@@H](O)[C@@H](OC)C(=O)[C@H](C)C[C@H](C)/C=C/C=C/C=C(\C)C(OCCO)C[C@@H]3CC[C@@H](C)[C@@](O)(O3)C(=O)C(=O)N3CCCC[C@H]3C(=O)O2)CC[C@H]1OCCCN1CCOC[C@H]1C (stereo not given in full) = < 5.00

query: Looking for the measured pIC50 of CO[C@@H]1C[C@H](C[C@@H](C)[C@@H]2CC(=O)[C@H](C)/C=C(\C)[C@@H](O)[C@@H](OC)C(=O)[C@H](C)C[C@H](C)/C=C/C=C/C=C(\C)C(OCCO)C[C@@H]3CC[C@@H](C)[C@@](O)(O3)C(=O)C(=O)N3CCCC[C@H]3C(=O)O2)CC[C@H]1OCCCN1CCOC(C)(C)C1 (stereo not given in full) , can you help?
result: < 5.00

query: Looking for the measured pIC50 of CO[C@@H]1C[C@H](C[C@@H](C)[C@@H]2CC(=O)[C@H](C)/C=C(\C)[C@@H](O)[C@@H](OC)C(=O)[C@H](C)C[C@H](C)/C=C/C=C/C=C(\C)C(OCCO)C[C@@H]3CC[C@@H](C)[C@@](O)(O3)C(=O)C(=O)N3CCCC[C@H]3C(=O)O2)CC[C@H]1OCCCN1C[C@@H](C)O[C@@H](C)C1 (stereo not given in full) , can you help?
result: < 5.00

* * *

# ASSAYED TARGET: Phosphatidylinositol 4,5-bisphosphate 3-kinase catalytic subunit alpha isoform (Homo sapiens, UniProt P42336)
# PROTOCOL TEXT: Inhibition of PI3Kalpha (unknown origin) by TR-FRET assay
MEASURE NAME: IC50

query: Looking for the measured IC50 of NOCCOCCOCCOCCC(=O)N1CCN(c2cnc3ccc(-c4cnc(Cl)c(NS(=O)(=O)c5ccc(F)cc5)c4)cc3n2)CC1 , can you help?
result: < 4.95 nM

* * *

Item-by-item account of inhibition
# ASSAYED TARGET: mTORC1 (Homo sapiens, UniProt P42345+Q8N122+Q9BVC4)
# PROTOCOL TEXT: Inhibition of mTORC1 (unknown origin) assessed as measuring phosphorylated p7OS6K level at 0.2 uM relative to control
# Type: protein-complex assay
Use % as the unit, but write only the number.

Study these solved cases before continuing.
CNC(=O)c1cc(-c2ccc3c(N4CCOC[C@@H]4C)nc(N4CCO[C@@H]5CCC[C@@H]54)nc3n2)ccc1F = 77.5
CNC(=O)c1cccc(-c2ccc3c(N4CCOC[C@@H]4C)nc(N4CCOc5ccccc54)nc3n2)c1 = 87.7

query: Provide the documented inhibition with mTORC1 (Homo sapiens, UniProt P42345+Q8N122+Q9BVC4) as the system for CNC(=O)c1cccc(-c2ccc3c(N4CCOC[C@@H]4C)nc(N4CCO[C@@H]5CCCC[C@@H]54)nc3n2)c1
result: 109

query: Provide the documented inhibition with mTORC1 (Homo sapiens, UniProt P42345+Q8N122+Q9BVC4) as the system for C[C@H]1COCCN1c1nc(N2CCO[C@@H]3CCCC[C@@H]32)nc2nc(-c3cccc(C4=NCC(C)(C)N4)c3)ccc12
result: 77.7

query: Provide the documented inhibition with mTORC1 (Homo sapiens, UniProt P42345+Q8N122+Q9BVC4) as the system for CNC(=O)c1cccc(-c2ccc3c(N4CCOC[C@@H]4C)nc(N4CCO[C@@H]5CCC[C@@H]54)nc3n2)c1
result: 89.9

query: Provide the documented inhibition with mTORC1 (Homo sapiens, UniProt P42345+Q8N122+Q9BVC4) as the system for CNC(=O)c1cccc(-c2ccc3c(N4CCOC[C@@H]4C)nc(N4CCOC[C@@H]4C)nc3n2)c1
result: 87.7
